Study target: T1, M2-2
T1 construct: also called PD1 mutant M2-2
Test summary: scFv-phage ELISA
Recorded metric: OD490
The reply should be a number, written without any unit.

Binder	Recorded metric	Number
PD1-42G4 (antibody, V domains shown, scFv-phage in the screening ELISA; later whole IgG) VH: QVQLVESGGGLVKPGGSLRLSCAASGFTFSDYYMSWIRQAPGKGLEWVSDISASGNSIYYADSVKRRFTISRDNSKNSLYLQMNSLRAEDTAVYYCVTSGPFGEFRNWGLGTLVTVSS VL: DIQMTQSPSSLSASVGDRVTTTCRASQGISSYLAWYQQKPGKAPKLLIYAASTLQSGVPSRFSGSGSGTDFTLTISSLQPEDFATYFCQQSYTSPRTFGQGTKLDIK	OD490	3

Now examine the next entry.
Give the measured OD490 of PD1-52E8 (antibody, V domains shown, scFv-phage in the screening ELISA; whole IgG in the other assays) VH: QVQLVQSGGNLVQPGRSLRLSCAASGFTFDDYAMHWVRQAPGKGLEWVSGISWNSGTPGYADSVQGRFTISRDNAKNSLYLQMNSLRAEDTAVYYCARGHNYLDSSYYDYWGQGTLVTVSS VL: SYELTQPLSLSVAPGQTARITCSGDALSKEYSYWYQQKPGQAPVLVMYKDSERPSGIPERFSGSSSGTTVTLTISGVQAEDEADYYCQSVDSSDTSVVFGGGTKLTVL .
3.4

Values compiled from patent US20190248900A1.
